System: Mus musculus
Assay: Toxicity in athymic nu/nu Harlan mouse xenografted with human HCT116 cells assessed as mouse survival at 100 mg/kg, po QD for 21 days measured on day 22
Assay type: organism-based, HCT-116
Set-up: dose 100 mg/kg, route oral
Details: in vivo, 504 h
attribute measured: Activity

> print(dat)
                                   compound  subject.of.test  attribute.measured  observed.result
1  O=C(/C=C/c1cccc(S(=O)(=O)Nc2ccccc2)c1)NO [BELINOSTAT]     Mus musculus            Activity        Non-toxic
2  CCCCCCc1nc2cc(/C=C/C(=O)NO)ccc2n1CCNCC.Cl.Cl     Mus musculus            Activity        Non-toxic
3  CCCCc1nc2cc(/C=C/C(=O)NO)ccc2n1CCNC(C)C.Cl.Cl     Mus musculus            Activity        Non-toxic
4  CN(C)CC(C)(C)Cn1c(CC(C)(C)C)nc2cc(/C=C/C(=O)NO)ccc21.Cl.Cl     Mus musculus            Activity        Non-toxic
